Origin of the recorded values: patent US20110065694A1

target: human histamine H3 receptor (Homo sapiens); assay: H3 GTPγS assay (SPA method), histamine H3 in vitro assay; format: biochemical; settings: membranes of cells expressing human H3; GTPγ[35S] SPA; antagonist testing with reference agonist at EC80 (30 nM); in one embodiment HCl salts tested; read-out: Potency (functional potency as indicated by IC50)
# IC50 values compiled below

c1ccc2c(c1)CCN(Cc1ccc3c(c1)nc1n3CCCN(C3CCC3)CC1)C2; < 10 nM
c1coc(-c2ccc3c(c2)nc2n3C3CCC2CN(C2CCC2)C3)c1 (stereo not drawn); < 1000 nM
c1cn(-c2ccc3c(c2)nc2n3CCN3CCCCC3C2)cn1 (stereo not drawn); < 10 nM
c1cn2cc(-c3ccc4c(c3)nc3n4CCN(C4CCC4)C3)ccc2n1; < 1000 nM
c1ccc2c(c1)ncn2-c1ccc2c(c1)nc1n2CCN(C2CCC2)C1; < 1000 nM

Prompt: Input c1coc(-c2ccc3c(c2)nc2n3CCN3CCC[C@H]3C2)c1 , output reported IC50.
Response: < 1000 nM

Prompt: Input Brc1ccc2c(c1)nc1n2CCN(C2CCC2)C1 , output reported IC50.
Response: > 1000 nM

Prompt: Input c1cnc(-c2ccc3c(c2)nc2n3CCN3CCC[C@H]3C2)cn1 , output reported IC50.
Response: > 1000 nM

Prompt: Input N#Cc1ccc(-c2ccc3c(c2)nc2n3CCCN3CCCCC3C2)cc1 (stereo not drawn) , output reported IC50.
Response: < 10 nM

----------
biological target: human histamine H3 receptor (Homo sapiens, UniProt Q9Y5N1); assay: H3 GTPγS assay (SPA method), histamine H3 in vitro assay; assay type: biochemical; settings: membranes of cells expressing human H3; GTPγ[35S] SPA; antagonist testing with reference agonist at EC80 (30 nM); in one embodiment HCl salts tested; read-out: Potency (functional potency as indicated by IC50)
Sequence (Q9Y5N1 whole entry): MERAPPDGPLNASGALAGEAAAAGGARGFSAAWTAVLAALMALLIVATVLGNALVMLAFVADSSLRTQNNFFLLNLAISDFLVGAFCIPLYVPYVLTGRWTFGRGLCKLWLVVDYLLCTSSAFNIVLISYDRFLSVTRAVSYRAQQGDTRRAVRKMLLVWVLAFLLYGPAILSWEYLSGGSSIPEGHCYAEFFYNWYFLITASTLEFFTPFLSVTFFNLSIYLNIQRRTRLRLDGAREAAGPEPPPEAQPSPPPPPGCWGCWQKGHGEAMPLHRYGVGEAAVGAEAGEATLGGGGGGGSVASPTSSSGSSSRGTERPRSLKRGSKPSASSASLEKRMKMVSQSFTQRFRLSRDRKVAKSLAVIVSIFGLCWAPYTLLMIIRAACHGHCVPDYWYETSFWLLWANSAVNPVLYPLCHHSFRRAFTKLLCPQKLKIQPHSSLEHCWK
pIC50: −log10 of the molar value.
readoutName: pIC50

# annotated cases, reported pIC50 shown
c1cc2cc(-c3ccc4c(c3)nc3n4C4CCC3CN(C3CCC3)C4)ccc2[nH]1 (centres unmarked); < 6.00
CN1CCN(c2ccc3c(c2)nc2n3CCN3CCCCC3C2)CC1 (centres unmarked); > 8.00
c1cn2cc(-c3ccc4c(c3)nc3n4CCN4CCCC4C3)ccc2n1 (single isomer, unassigned) [Compound 78]; > 7.00

// next entry
Prompt: Input c1cn2cc(-c3ccc4c(c3)nc3n4CCN4CCCC4C3)ccc2n1 (single isomer, unassigned) [Compound 77] , output reported pIC50.
Response: > 8.00

----------
target: human histamine H3 receptor (Homo sapiens, UniProt Q9Y5N1); assay: H3 GTPγS assay (SPA method), histamine H3 in vitro assay; type: biochemical; conditions: membranes of cells expressing human H3; GTPγ[35S] SPA; antagonist testing with reference agonist at EC80 (30 nM); in one embodiment HCl salts tested; read-out: Potency (functional potency as indicated by IC50)
pIC50: −log10 of the molar value.
readoutName: pIC50

# annotated cases, reported pIC50 shown
CC(=O)Nc1ccc(-c2ccc3c(c2)nc2n3CCN3CCC[C@H]3C2)cc1; > 7.00
Clc1ccc2c(c1)nc1n2C2CC(C1)N(C1CCC1)C2 (stereo not drawn); < 6.00
c1ccc2c(c1)ncn2-c1ccc2c(c1)nc1n2CC2CCC(C1)N2C1CCC1 (stereo not drawn); > 7.00
c1cc2c(cc1CN1CCOCC1)nc1n2CCCN2CCCCC2C1 (stereo not drawn); > 7.00
c1cn2cc(-c3ccc4c(c3)nc3n4C4CC(C3)N(C3CCC3)C4)ccc2n1 (stereo not drawn); > 6.00

Prompt: Input Clc1ccc2c(c1)nc1n2CC2CC1CN2C1CCC1 (stereo not drawn) , output reported pIC50.
Response: > 6.00

Prompt: Input N#Cc1ccc(-c2ccc3c(c2)nc2n3CCN3CCC[C@H]3C2)cn1 , output reported pIC50.
Response: > 7.00

Prompt: Input Brc1ccc2c(c1)nc1n2CCN2CCCCC2C1 (stereo not drawn) , output reported pIC50.
Response: > 7.00

Prompt: Input c1cn2cc(-c3ccc4c(c3)nc3n4CCCN4CCCC4C3)ccc2n1 (stereo not drawn) [Compound 81] , output reported pIC50.
Response: > 8.00
